The values you see were collected from PubChem BioAssay (NCATS).

protocol: qHTS assay for small molecule disruptors of the mitochondrial membrane potential - 5 hr assay (AID 651755); further: nearly all actives have a fitted effect of over 40% in size
condition-description: JC-1-type ratio dye; series mostly up to 92.2 µM
Inconclusive results are not listed. Active and inactive are the calls of the source. The call rests on the fitted dose curve.
Lab note: assign the record to one of 1 for active, 0 for inactive

What did the test return for ClC(Cl)(Cl)C(Cl)(Cl)Cl ?
0

What did the test return for CCCCOC(=O)c1ccccc1N ?
0

What did the test return for Oc1cc(Cl)ccc1Cl ?
0

What did the test return for ClCc1ccccn1 ?
0

What did the test return for O=C(O)c1cccc(Cl)c1 ?
0

What did the test return for C=CCO ?
0

What did the test return for Cc1cc(-c2ccc(N)c(C)c2)ccc1N ?
0

What did the test return for BrCCc1ccccc1 ?
0

What did the test return for CC(C)(Cl)Cl ?
0

What did the test return for CCOC(=O)CC(SP(=O)(OC)OC)C(=O)OCC (configuration not stated) ?
0

What did the test return for N#CCCCCC#N ?
0

What did the test return for N#CCBr ?
0

What did the test return for Clc1ccccc1 ?
0

What did the test return for Cc1cc(-c2cc(C)c(N)c(C)c2)cc(C)c1N ?
0

What did the test return for O=P(OCCCl)(OCCCl)OCCCl ?
0

What did the test return for O=[N+]([O-])c1cccc(CCl)c1 ?
0

What did the test return for C=CC(=O)OC ?
0

What did the test return for CN(C)c1ccccc1 ?
0

What did the test return for Oc1ccc(Cl)c(Cl)c1 ?
1

What did the test return for Cc1cnc[nH]1 ?
0

What did the test return for BrCC(Br)(Br)Br ?
0

What did the test return for O=C(O)C(Br)Br ?
0

What did the test return for [O-][Cl+2]([O-])O ?
0
